Experiment: Plasma and brain levels in male CD-1 mice after a single IP dose
Type: in vivo, CD-1 mouse
Settings: male, CD-1, mouse, brain homogenate, ip, 10 mg/kg
Peptide text beside a SMILES is read from it.
Readout Name: level at 4 h (ng/mL)
State the answer as a number, implicitly in ng/mL.

Kindly indicate its recorded level at 4 h. Item: CC(C)[C@@H](NC(=O)[C@H](N)Cc1ccc(O)cc1)C(=O)N[C@H](CC(=O)O)C(=O)N[C@H](CCCCN)C(=O)N[C@H](CCCNC(=N)N)C(=O)O [FC-12738, (D-Tyr)-(D-Val)-(D-Asp)-(D-Lys)-(D-Arg)] (HELM PEPTIDE1{[dY].[dV].[dD].[dK].[dR]}$$$$V2.0) 1.35
